Quick list: melting point per entry.

[
  {
    "compound": "Cc1ccc(-c2cccc(CNc3ccc(OCC(=O)O)cc3)c2)c(Cl)c1 [Compound I-27]",
    "parameterMeasured": "melting point",
    "experimentalResult": "111 to 114 °C"
  },
  {
    "compound": "CCOCCOc1cc(C)c(-c2cccc(CNc3ccc(OCC(=O)O)c(F)c3)c2)c(C)c1 [Compound I-36]",
    "parameterMeasured": "melting point",
    "experimentalResult": "137 to 139 °C"
  },
  {
    "compound": "Cc1ccccc1-c1cccc(CNc2ccc(OCC(=O)O)cc2)c1 [Compound I-25]",
    "parameterMeasured": "melting point",
    "experimentalResult": "101 to 104 °C"
  },
  {
    "compound": "Cc1noc(C)c1-c1cccc(CNc2ccc(OCC(=O)O)c(F)c2)c1 [Compound I-14]",
    "parameterMeasured": "melting point",
    "experimentalResult": "72 to 73 °C"
  },
  {
    "compound": "COCOc1cc(C)c(-c2cccc(CNc3ccc(OCC(=O)O)cc3)c2)c(C)c1 [Compound I-39]",
    "parameterMeasured": "melting point",
    "experimentalResult": "132 to 134 °C"
  },
  {
    "compound": "O=C(O)COc1ccc(NCc2cccc(-c3ccccc3Cl)c2)cc1 [Compound I-24]",
    "parameterMeasured": "melting point",
    "experimentalResult": "124 to 126 °C"
  }
]

For reference, reported melting point for O=C(O)COc1ccc(NCc2cccc(-c3ccccc3F)c2)cc1 [Compound I-26] stands at 111 to 112 °C

Input N#Cc1ccccc1-c1cccc(CNc2ccc(OCC(=O)O)c(F)c2)c1 [Compound I-7] . Output melting point: 137 to 140 °C

The compound identified as COc1cc(C)c(-c2cccc(CNc3ccc(OCC(=O)O)cc3)c2)c(C)c1 [Compound I-18] registered its melting point at 131 to 134 °C

---

Molecular target: hGPR40 receptor (Homo sapiens (Human), UniProt O14842)
Sequence (O14842 whole entry): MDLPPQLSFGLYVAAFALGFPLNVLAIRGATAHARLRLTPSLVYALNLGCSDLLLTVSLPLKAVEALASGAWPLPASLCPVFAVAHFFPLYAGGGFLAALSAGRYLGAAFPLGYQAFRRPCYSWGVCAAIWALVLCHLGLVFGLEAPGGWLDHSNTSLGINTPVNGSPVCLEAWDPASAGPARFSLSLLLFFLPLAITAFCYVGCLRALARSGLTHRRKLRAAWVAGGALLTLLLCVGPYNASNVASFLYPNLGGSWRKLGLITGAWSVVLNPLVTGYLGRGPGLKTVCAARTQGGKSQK
Assay: agonistic activity on hGPR40-CHO stably transfected cells (Fluo-4 / FLIPR)
Type: cell-based
Details: 100 nM; relative to linoleic acid well
parameterMeasured: activation at 0.1 µM (%)

[
  {
    "sampleSmiles": "Cc1cc(OC(F)(F)F)ccc1-c1cccc(CNc2ccc(OCC(=O)O)c(F)c2)c1",
    "activation at 0.1 µM [%]": 78
  },
  {
    "sampleSmiles": "COc1cc(C)c(-c2cccc(CNc3ccc(OCC(=O)O)cc3)c2)c(C)c1",
    "activation at 0.1 µM [%]": 65
  },
  {
    "sampleSmiles": "Cc1cc(OC(C)C)ccc1-c1cccc(CNc2ccc(OCC(=O)O)c(F)c2)c1",
    "activation at 0.1 µM [%]": 65
  }
]

---

Molecular target: hGPR40 receptor (Homo sapiens (Human))
Experiment: agonistic activity on hGPR40-CHO stably transfected cells (Fluo-4 / FLIPR)
Settings: mean ± SD of three determinations
pEC50: −log10 of the molar value.
parameterMeasured: pEC50

[
  {
    "sampleSmiles": "CCOc1ccc(-c2cccc(CNc3ccc(OCC(=O)O)c(F)c3)c2)c(C)c1",
    "pEC50": 7.84
  },
  {
    "sampleSmiles": "O=C(O)COc1ccc(NCc2cccc(-c3ccccc3C(F)(F)F)c2)cc1F",
    "pEC50": 7.93
  },
  {
    "sampleSmiles": "O=C(O)COc1ccc(NCc2cccc(-c3ccccc3Cl)c2)cc1F",
    "pEC50": 7.79
  }
]
